- Test system: P12-Ichikawa
- experiment-summary: AUC of viability dose-response curve (% viability x log10 dose units); higher = less sensitive
- measurement-setup: RPMI 5 mM glucose + 10% FBS; 48 h
attribute-measured: AUC of viability dose-response curve
Enter a number only.

C#C[C@]1(O)CC[C@H]2[C@@H]3CCc4cc(OC)ccc4[C@H]3CC[C@@]21C    468
OC1=CC=C(C=C1)\C2=C\C(=O)C3=C(O2)C=C(O)C=C3O    456
CO[C@H]1C[C@@H]2CC[C@@H](C)[C@@](O)(O2)C(=O)C(=O)N2CCCC[C@H]2C(=O)O[C@H]([C@H](C)C[C@@H]2CC[C@@H](OCCO)[C@H](OC)C2)CC(=O)[C@H](C)/C=C(/C)[C@@H](O)[C@@H](OC)C(=O)[C@H](C)C[C@H](C)\C=C/C=C\C=C/1C    329
CCNC(=O)[C@H]1O[C@@H](n2cnc3c(N)nc(NCCc4ccc(CCC(=O)O)cc4)nc32)[C@H](O)[C@@H]1O    456
COc1cc(OC)c(NC(=O)Nc2cc(C)on2)cc1Cl    465
CCNc1cc(NC2CCC(O)CC2)nc(Nc2ccc3c(ccn3Cc3ccccc3)c2)n1 (stereo not given)    467
CC(=O)OC\C1=C(\[N@]2[C@@H](SC1)[C@H](N)C2=O)C(O)=O    348
Nc1cc(c(cc1S(=O)(N)=O)S(N)(=O)=O)C(/Cl)=C(/Cl)Cl    396

Recorded AUC of viability dose-response curve (compound CC[C@@]1([C@@H]2O[C@@H]([C@H]3O[C@@](O)(CO)[C@H](C)C[C@@H]3C)C[C@@H]2C)CC[C@H]([C@]2(C)CC[C@]3(C[C@H](O)[C@@H](C)[C@@H]([C@@H](C)[C@@H](OC)[C@H](C)C(=O)[O-])O3)O2)O1 ): 350

// recorded AUC of viability dose-response curve for CCCCCCCCCCCCCCCCCCOP(=O)([O-])OC1CC[N+](C)(C)CC1 : 462

The reported value for CCCCCCCCc1ccc(CCC(N)(CO)CO)cc1 in terms of AUC of viability dose-response curve is 407

The compound listed as CC(=O)[C@H]1CC[C@H]2[C@@H]3CCC4=CC(=O)CC[C@]4(C)[C@H]3CC[C@]12C has a reported AUC of viability dose-response curve of 455

Reported AUC of viability dose-response curve for CN(C)CC/C=C1/c2ccccc2COc2ccc(CC(=O)O)cc21 was 467

Reported AUC of viability dose-response curve of CN[C@@H]1C[C@H]2O[C@@](C)([C@@H]1OC)n1c3ccccc3c3c4c(c5c6ccccc6n2c5c31)C(=O)N[C@H]4O : 249

CCCCC[C@H](O)/C=C/[C@H]1[C@H](O)CC(=O)[C@@H]1C/C=C\CCCC(=O)O has a reported AUC of viability dose-response curve of 457

---

- Test system: SEM cells
- experiment-summary: cell viability relative to DMSO control; higher = less cytotoxic
- measurement-setup: RPMI 5 mM glucose + 10% dialyzed FBS; 48 h; 46.1 µM
Lab note: cut-off is 60%. Strictly less in cell viability is Met. Exactly 60% or more is Not met.

Previously resolved entries follow.
O=C(NNC(=O)c1ccc(CN[S+](=O)([O-])c2ccc(F)c(Cl)c2)cc1)c1ccccc1    Not met
COC[C@H]1OC(=O)C2=COC3=C2[C@@]1(C)\C4=C(\[C@@H]5CC[C@H](O)[C@@]5(C)C[C@H]4OC(C)=O)C3=O    Met
COc1cc2ncnc(Nc3cccc(Br)c3)c2cc1OC    Not met

Now look at this one.
cell viability under 60%? Item: Cc1cc(Cl)ccc1OCCCC(=O)NO
Met

---

- Test system: SEM cells
- experiment-summary: cell viability relative to DMSO control; higher = less cytotoxic
- measurement-setup: HPLM + 10% dialyzed FBS; 48 h; 0.19 µM
Listed molecules paired with reported cell viability
Give the value in % but do not write % after it.

Examples from the recorded data:
Nc1cc(c(cc1S(=O)(N)=O)S(N)(=O)=O)C(/Cl)=C(/Cl)Cl    120
Cc1[nH]c(/C=C2\C(=O)Nc3ccc([S+](=O)([O-])Cc4c(Cl)cccc4Cl)cc32)c(C)c1C(=O)N1CCC[C@@H]1CN1CCCC1    96.6
CC(C)(C)NC(=O)[C@@H]1CN(Cc2cccnc2)CCN1C[C@@H](O)C[C@@H](Cc1ccccc1)C(=O)N[C@H]1c2ccccc2C[C@H]1O.O=S(=O)(O)O    96.5
C[C@@H]1CC[C@@]2(OC1)OC1CC3C4CC=C5CC(O)CCC5(C)C4CCC3(C)C1[C@@H]2C (some centres undefined)    106

# cell viability of NC\1=N\C(=O)N(\C=C1)[C@H]\2[C@H](O)[C@H](O)C(=C2F)\CO = 97.6

---

- Tested on: P12-Ichikawa
- experiment-summary: cell viability relative to DMSO control; higher = less cytotoxic
- measurement-setup: RPMI 5 mM glucose + 10% FBS; 48 h; 0.19 µM
attribute-measured: cell viability (%)
Field: numeric (%). Do not append units.

COc1cc(-c2nn(C3CCC(N4CCN(C(C)=O)CC4)CC3)c3ncnc(N)c23)ccc1NC(=O)c1cc2ccccc2n1C (centres undefined)    117
CC[C@@]1(O)C[C@H](O[C@H]2C[C@H](N(C)C)[C@H](O[C@H]3C[C@H](O)[C@H](O[C@H]4CCC(=O)[C@H](C)O4)[C@H](C)O3)[C@H](C)O2)c2c(cc3c(c2O)C(=O)c2c(O)cccc2C3=O)[C@H]1C(=O)OC    99
Oc1cc(O)cc(/C=C/c2ccc(O)c(O)c2)c1    97.8
COC1=CC=C(C=C1)C2CC(=N/N2C3=CC=C(C=C3)[S+](N)([O-])=O)\C4=CC=CC=C4 (centres undefined)    89.6
C[C@@H]1C[C@H]2[C@@H]3CC\C4=C\C(=O)\C=C/[C@]4(C)[C@@]3(Cl)[C@@H](O)C[C@]2(C)[C@@]1(OC(=O)C5=CC=CO5)C(=O)CCl    49.3
CCCCCCCCc1ccc(CCC(N)(CO)CO)cc1    115

cell viability in this record for CCOC1=CC(=CC=C1C/2=N/[C@@](C)(C3=CC=C(Cl)C=C3)[C@](C)(N2C(=O)N4CCN(CC4)CC(=O)N5CCOCC5)C6=CC=C(Cl)C=C6)C(C)(C)C : 108

---

- Tested on: NOMO1
- experiment-summary: cell viability relative to DMSO control; higher = less cytotoxic
- measurement-setup: RPMI 5 mM glucose + 10% dialyzed FBS; 48 h; 5.12 µM
Lab note: cut-off is 80%. Strictly less in cell viability is true. Exactly 80% or more is false.

NC(=O)Nc1cc(-c2ccc(CN3CCOCC3)cc2)sc1C(N)=O    true
CCCCCCCCCCCCCCCCCCOP(=O)([O-])OC1CC[N+](C)(C)CC1    false
CCCCCCCCc1ccc(CCC(N)(CO)CO)cc1    true
CO[C@@H]1C(N(C)C(=O)c2ccccc2)C[C@H]2O[C@]1(C)n1c3ccccc3c3c4c(c5c6ccccc6n2c5c31)C(=O)NC4=O (stereo partly drawn)    true

Is it true that cell viability reported for COC[C@H]1OC(=O)C2=COC3=C2[C@@]1(C)\C4=C(\[C@@H]5CC[C@H](O)[C@@]5(C)C[C@H]4OC(C)=O)C3=O is less than 80%?
false

Is 80% strictly greater than the molecule's reported cell viability? molecule: Cc1cn(CCN2CCN(c3ccccc3-c3cc(C#N)cc(C(=O)NCCCN4CCCC4)c3)CC2)c2ccccc12
false

Here's an entry: CC(C)(C)c1cc(C(=O)O)c(NC(=O)Nc2ccc3[nH]ncc3c2)s1 . Is its cell viability below 80%?
false

---

- Test system: NOMO1
- experiment-summary: cell viability relative to DMSO control; higher = less cytotoxic
- measurement-setup: HPLM + 10% dialyzed FBS; 48 h; 0.000781 µM
Catalogue of compounds with associated cell viability
The reply should consist of the numeric value with the unit placed after it.

CC(C)C[C@H](NC(=O)[C@H](Cc1ccccc1)NC(=O)c1cnccn1)B(O)O    99.7%
Cc1ccc(-c2ncn(-c3ccc(Nc4nccc(-c5cccc(N6CCOCC6)c5)n4)cc3)n2)cn1    94.8%
N[C@@H](CC(=O)N1CCn2c(nnc2C(F)(F)F)C1)Cc1cc(F)c(F)cc1F    119%

Here is the next item to consider.
Entry CCN1C[C@]2(OC(=O)c3ccccc3NC(C)=O)CC[C@H](OC)[C@@]34[C@@H]2C[C@@H]([C@@H]13)[C@@]1(O)C[C@H](OC)[C@H]2C[C@@H]4[C@]1(O)[C@H]2OC — recorded cell viability = 106%

---

- Tested on: SEM cells
- experiment-summary: cell viability relative to DMSO control; higher = less cytotoxic
- measurement-setup: RPMI 5 mM glucose + 10% FBS; 48 h; 0.00234 µM
attribute-measured: cell viability (%)
Express your answer in %, writing the number without its unit.

Answered cases to consult:
C[N+](C)([O-])CCNc1ccc(NCC[N+](C)(C)[O-])c2c1C(=O)c1c(O)ccc(O)c1C2=O    95.8
O=C(CCc1ccc(O)cc1)c1c(O)cc(O)cc1O[C@@H]1O[C@H](CO)[C@@H](O)[C@H](O)[C@H]1O    93.9
NC(=O)Nc1cc(-c2ccc(CN3CCOCC3)cc2)sc1C(N)=O    120
COC1(C[S+]([O-])c2ccccc2)CCN(CCc2c[nH]c3ccc(F)cc23)CC1 (stereo unspecified)    109
OCCCNc1cc(-c2ccnc(Nc3cccc(Cl)c3)n2)ccn1    125

The reported cell viability of the molecule COc1cc(OC)c(NC(=O)Nc2cc(C)on2)cc1Cl was 79.6

Measured cell viability of CC(C)(C)c1cc(C(=O)O)c(NC(=O)Nc2ccc3[nH]ncc3c2)s1 : 93.2

cell viability recorded for this molecule, Cc1cc(O)c2c(c1)C(=O)c1cc(O)cc(O)c1C2=O , is 99.3
